These measurements were taken from patent US7074807B2.

# methodNotes: Apoptosis assay (annexin V-FITC/propidium iodide flow cytometry)
# experimentalContext: human
resultType: viability at 2 h, 10 mM (%)
# output: bare number, implied unit %

(Q) Please list viability at 2 h, 10 mM recorded for the compound CC1(C)CC(O)CC(C)(C)N1[O] [tempol, 4-hydroxy-tempo, reference compound]
(A) 89.8

====

# methodNotes: Apoptosis assay (annexin V-FITC/propidium iodide flow cytometry), serum-free
# experimentalContext: human
resultType: viability at 2 h, 10 mM (%)
# output: bare number, implied unit %

(Q) Please list viability at 2 h, 10 mM recorded for the compound CC1(C)CC(O)CC(C)(C)N1[O] [tempol, 4-hydroxy-tempo, reference compound]
(A) 95.8

====

# methodNotes: Apoptosis assay (annexin V-FITC/propidium iodide flow cytometry)
# experimentalContext: human
resultType: viability at 2 h, 10 mM (%)
# output: bare number, implied unit %

(Q) Please list viability at 2 h, 10 mM recorded for the molecule CC1(C)CC(O)CC(C)(C)N1[O] [tempol, 4-hydroxy-tempo, reference compound]
(A) 92.3
